target: BTK (Homo sapiens, UniProt Q06187); assay: biochemical; settings: read-out: BTK inhibition (%), 0.75 uM BTK, […] probe 3l, 15 min preincubation
Sequence (Q06187 402-655 limits assumed): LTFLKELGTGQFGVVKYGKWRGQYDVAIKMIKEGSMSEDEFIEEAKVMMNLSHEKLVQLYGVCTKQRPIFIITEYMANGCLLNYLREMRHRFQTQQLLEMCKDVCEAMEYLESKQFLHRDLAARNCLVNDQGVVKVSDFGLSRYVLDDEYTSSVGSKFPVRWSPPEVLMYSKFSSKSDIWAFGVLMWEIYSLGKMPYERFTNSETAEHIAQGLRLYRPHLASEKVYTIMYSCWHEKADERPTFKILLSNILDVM
Property label: inhibition at 10 µM (%)
The reply should be a number in %, with the unit left off.

Worked cases, answers included:
CC(C)C1CCC(C(=O)N[C@H](Cc2ccccc2)C(=O)O)CC1 (stereo partly drawn) [PCM-0095239]: -4.7
CCNC(=O)C#Cc1ccc2c(C(=Nc3ccc(CN(C)C)cc3)c3ccccc3)c(O)[nH]c2c1 [PCM-0215488]: 88.3

Incoming: I am curious: what inhibition at 10 µM value has been reported for COC(=O)Nc1nc2ccc(C(=O)c3cccs3)cc2[nH]1 [PCM-0065378] ?
Outgoing: -6.2

Incoming: Next entry: CC#C[C@]1(O)CC[C@H]2[C@@H]3CCC4=CC(=O)CCC4=C3[C@@H](c3ccc(N(C)C)cc3)C[C@@]21C [PCM-0064713]
Outgoing: 38.6

Incoming: Next entry: Cc1cc(Nc2ccc(NC(=O)c3ccc(Nc4ccnc5ccccc45)cc3)cc2)nc(N)n1 [PCM-0215241]
Outgoing: 17

Incoming: Next entry: N#C[C@@H]1CCCN1C(=O)CNC12CC3CC(CC(O)(C3)C1)C2 [PCM-0095499]
Outgoing: 1.6

Incoming: Next entry: COc1cc(C[C@@H](COC2OC(CO)C(O)C(O)C2O)[C@@H](COC2OC(CO)C(O)C(O)C2O)Cc2ccc(O)c(OC)c2)ccc1O (stereo partly drawn) [PCM-0214976]
Outgoing: 2.3

Incoming: Next entry: COc1ccc(COc2ccc(CC#N)cc2)cc1 [PCM-0215565]
Outgoing: -9.3

Incoming: Next entry: CC(C)N(CCCCOCC(=O)NS(C)(=O)=O)c1cnc(-c2ccccc2)c(-c2ccccc2)n1 [PCM-0214894]
Outgoing: 11.7

Incoming: Next entry: O=C(O)C1=C(CSc2nnnn2CS(=O)(=O)O)CS[C@@H]2[C@H](NC(=O)[C@H](O)c3ccccc3)C(=O)N12 [PCM-0214888]
Outgoing: 3.9

Incoming: Next entry: Nc1ccccc1NC(=O)c1ccc(CNC(=O)OCc2cccnc2)cc1 [PCM-0094980]
Outgoing: 9.7

Incoming: Next entry: C=CC(=O)N1CC[C@@H](Oc2nc(Nc3ccc(N4CCC(N5CCN(C)CC5)CC4)cc3)c(C(N)=O)nc2CC)C1 [PCM-0215788]
Outgoing: 91

Incoming: Next entry: CC(C)=CCC[C@](C)(O)[C@H]1CC[C@]2(C)[C@@H]1[C@H](O)C[C@@H]1[C@@]3(C)CC[C@H](O)C(C)(C)[C@@H]3[C@@H](O[C@@H]3O[C@H](CO)[C@@H](O)[C@H](O)[C@H]3O)C[C@]12C [PCM-0216412]
Outgoing: -10.8

Incoming: Next entry: Oc1c(F)cc(-c2cnccc2-c2ccc(N3CCOCC3)cc2)cc1F [PCM-0215582]
Outgoing: -12.4

Incoming: Next entry: CC1=C(CSC(=S)N2CCCCC2)C(=O)c2ccccc2C1=O [PCM-0215883]
Outgoing: 21.6

Incoming: Next entry: Cc1ccc(C(=O)N(CCCN)[C@@H](c2oc3cc(Cl)ccc3c(=O)c2Cc2ccccc2)C(C)C)cc1 [PCM-0095226]
Outgoing: -2.3

Incoming: Next entry: Cc1ccc(O)c([C@H](CCN(C(C)C)C(C)C)c2ccccc2)c1 [PCM-0095328]
Outgoing: 1.6

Incoming: Next entry: CC(=O)c1ccccc1O [PCM-0216621]
Outgoing: 0.8

Incoming: Next entry: Cc1ccc(OCC(O)C(C)NC(C)C)c2c1CCC2 (stereo not drawn) [PCM-0215619]
Outgoing: 13.9

Incoming: Next entry: CC(C)Oc1ccc(C(=O)N[C@H](CNC(=O)CN(C)C)Cc2ccc(-c3cn4cccc([C@H](C)O)c4n3)cc2)cc1Cl [PCM-0215312]
Outgoing: -30.9

Incoming: Next entry: CC(C)OC(=O)[C@H](C)N[P@](=O)(OC[C@H]1O[C@@H](n2ccc(=O)[nH]c2=O)[C@](C)(F)[C@@H]1O)Oc1ccccc1 [PCM-0214785]
Outgoing: 13.2

Incoming: Next entry: C[C@H]1CO[C@@H]2Cn3cc(C(=O)NCc4ccc(F)cc4F)c(=O)c(O)c3C(=O)N12 [PCM-0215445]
Outgoing: 24.7

Incoming: Next entry: CC(=O)O[C@@]12CO[C@@H]1C[C@H](O)[C@@]1(C)C(=O)[C@H](O)C3=C(C)[C@@H](OC(=O)[C@H](O)[C@@H](NC(=O)c4ccccc4)c4ccccc4)C[C@@](O)([C@@H](OC(=O)c4ccccc4)[C@H]21)C3(C)C [PCM-0214981]
Outgoing: 9.3

Incoming: Next entry: COCCOc1nc(-c2ccc(Cl)c(Cl)c2)n(-c2ccc(NC(=O)CCl)cc2)n1 [PCM-0215327]
Outgoing: 106
